- Measured Target: HLA-B*3501 (human), P01889
- Protocol Details: competition
- Applied Conditions: modification not given
# Lookup of reported pIC50 keyed by entry
On this scale, pIC50 is minus log10 of a concentration expressed in M (mol/L).

Some solved cases for reference:
The binder listed as FPVRPQVPL [HIV nef 84] shows pIC50 equal to 8.66

# binder EPHISYPPL [15.117] ; its pIC50 = 5.10

Field pIC50 (entry YPPLHEWVL [15.157] ) reads 6.02

Lookup result for LPFDFTPGY [B*3501 nat. proc.] ; measured pIC50: 8.25

Form field pIC50, entry FPDLESEFQA [16.199] : 5.24

Would you kindly look at the next entry?
For record RPQVPLRPM [15.067] the listed pIC50 is 5.24
